Target: Pin1 (Homo sapiens)
Sequence (Q13526 whole entry): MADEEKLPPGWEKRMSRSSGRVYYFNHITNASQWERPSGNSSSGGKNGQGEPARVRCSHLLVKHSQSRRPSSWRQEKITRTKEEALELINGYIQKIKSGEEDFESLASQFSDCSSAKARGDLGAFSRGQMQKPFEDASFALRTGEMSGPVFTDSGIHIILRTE
Test: Lysate target engagement (pull down with biotinylated probes; competition assay)
Assay type: binding
Set-up: endogenous in cells; host or cells: MDA-MB-231
Details: read with the E4 line of the same compound (complete, partial, probe pull down)
Non-standard residues stand in square brackets, D forms with d. Residues, ends and D or L forms follow the SMILES beside them. *: point of attachment. Biotinyl(3aR,4R,6aS) = O=C1N[C@@H]2[C@@H](CS[C@@H]2CCCCC(=O)*)N1; Phe(4-F) = N[C@@H](Cc1ccc(F)cc1)C(=O)O; 2Nal = N[C@@H](Cc1ccc2ccccc2c1)C(=O)O; X2 = C[C@H]1NC(=O)N[C@H]1CCCCCC(=O)*; NMeF = CN[C@@H](Cc1ccccc1)C(=O)O; Cit = NC(=O)NCCC[C@H](N)C(=O)O; Pip = O=C(O)[C@@H]1CCCCN1; ClAc = O=C(CCl)*
quantity: Lysate Target Engagement? concentration stated for the engagement or pull down

Consider the worked cases shown below.
NC(=O)NCCC[C@H](NC(=O)[C@H](Cc1ccc2ccccc2c1)NC(=O)[C@@H]1CCCCN1C(=O)[C@H](CCC(=O)O)NC(=O)CCl)C(N)=O [Compound 2b-13] (ClAc-E[Pip][2Nal][Cit]-NH2) = at 10 μM
NC(=O)[C@H](Cc1ccc(F)cc1)NC(=O)[C@H](Cc1c[nH]c2ccccc12)NC(=O)[C@@H]1CCCCN1C(=O)[C@H](CCC(=O)O)NC(=O)CCl [Compound 2-27] (ClAc-E[Pip]W[Phe(4-F)]-NH2) = at 10 μM
CCOC(=O)[C@H](CCCNC(N)=O)NC(=O)[C@H](Cc1c[nH]c2ccccc12)NC(=O)[C@@H]1CCCCN1C(=O)[C@H](Cc1ccccc1)N(C)C(=O)CCl [Compound 18] (ClAc-[NMeF][Pip]W[Cit]-OEt) = 500 µM
CN(C(=O)CCl)[C@@H](Cc1ccccc1)C(=O)N1CCCC[C@H]1C(=O)N[C@@H](Cc1c[nH]c2ccccc12)C(=O)N[C@@H](CCCNC(N)=O)C(=O)N[C@@H](CCCCNC(=O)CCCC[C@H]1SC[C@H]2NC(=O)N[C@H]21)C(N)=O [Compound 2-32] (ClAc-[NMeF][Pip]W[Cit]K(Biotinyl(3aR,4R,6aS))-NH2) = at 0.5 μM
C[C@H]1NC(=O)N[C@H]1CCCCCC(=O)NCCCC[C@H](NC(=O)[C@H](CCCNC(N)=O)NC(=O)[C@H](Cc1c[nH]c2ccccc12)NC(=O)[C@@H]1CCCCN1C(=O)[C@H](Cc1ccccc1)N(C)C(=O)CCl)C(N)=O [Compound 2c] (ClAc-[NMeF][Pip]W[Cit]K(X2)-NH2) = at 0.5 μM

Task: Which Lysate Target Engagement? concentration stated for the engagement or pull down is reported for this compound? COC(=O)CC[C@H](NC(=O)CCl)C(=O)N1CCCC[C@H]1C(=O)N[C@@H](Cc1c[nH]c2ccccc12)C(=O)N[C@@H](Cc1ccc(O)cc1)C(N)=O [Compound 2-22] (ClAc-E(OMe)[Pip]WY-NH2)
Output: at 10 μM
